Data origin: patent US8178689B2

Biological target: Recombinant human liver GK1 (GST-GK) (Homo sapiens, UniProt P35557)
Construct: made in house; host or cells: E. coli
Sequence (P35557 1-466 isoform P35557-2): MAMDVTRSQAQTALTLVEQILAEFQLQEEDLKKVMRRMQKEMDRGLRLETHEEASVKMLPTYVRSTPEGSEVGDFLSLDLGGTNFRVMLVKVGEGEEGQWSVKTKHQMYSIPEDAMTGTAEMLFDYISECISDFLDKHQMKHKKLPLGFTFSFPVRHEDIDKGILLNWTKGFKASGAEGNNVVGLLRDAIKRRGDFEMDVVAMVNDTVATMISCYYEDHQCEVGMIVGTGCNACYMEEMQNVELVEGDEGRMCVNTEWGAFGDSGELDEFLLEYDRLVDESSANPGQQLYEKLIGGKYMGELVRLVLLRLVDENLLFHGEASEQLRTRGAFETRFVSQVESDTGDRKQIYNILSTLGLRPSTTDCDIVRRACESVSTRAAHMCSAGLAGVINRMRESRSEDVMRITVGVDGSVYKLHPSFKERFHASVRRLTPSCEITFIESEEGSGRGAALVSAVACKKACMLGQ
Assay: In vitro glucokinase activity (G6PDH-coupled NADH generation assay)
Format: biochemical
Design: unit not given here
Conditions: concentration of activator that produced a 50% increase in the activity of GK; 5 mM D-glucose, 30° C., pH 7.1, 10% DMSO
measurement label: SC 1.5:0.1

Exercise: Which SC 1.5:0.1 reading was recorded for the compound `CC(C)C[C@@H](C(=O)Nc1nccs1)N1CC2=C(Oc3c(Cl)cccc3C2)C1=O` ?
Solution: 18.957

A: COc1ccc(OC)c2c1CC1=C(O2)C(=O)N([C@@H](CC(C)C)C(=O)Nc2ccccn2)C1
B: CC(C)C[C@@H](C(=O)Nc1ccccn1)N1CC2=C(Oc3cccc(Cl)c3C2)C1=O
Exercise: Please indicate which item has the smaller measured SC 1.5:0.1: A versus B Your answer should be the label attached to the chosen record.
Solution: A

---

Molecular target: Recombinant human liver GK1 (GST-GK) (Homo sapiens, UniProt P35557)
Construct: made in house; host or cells: E. coli
Sequence (P35557 1-466 isoform P35557-2): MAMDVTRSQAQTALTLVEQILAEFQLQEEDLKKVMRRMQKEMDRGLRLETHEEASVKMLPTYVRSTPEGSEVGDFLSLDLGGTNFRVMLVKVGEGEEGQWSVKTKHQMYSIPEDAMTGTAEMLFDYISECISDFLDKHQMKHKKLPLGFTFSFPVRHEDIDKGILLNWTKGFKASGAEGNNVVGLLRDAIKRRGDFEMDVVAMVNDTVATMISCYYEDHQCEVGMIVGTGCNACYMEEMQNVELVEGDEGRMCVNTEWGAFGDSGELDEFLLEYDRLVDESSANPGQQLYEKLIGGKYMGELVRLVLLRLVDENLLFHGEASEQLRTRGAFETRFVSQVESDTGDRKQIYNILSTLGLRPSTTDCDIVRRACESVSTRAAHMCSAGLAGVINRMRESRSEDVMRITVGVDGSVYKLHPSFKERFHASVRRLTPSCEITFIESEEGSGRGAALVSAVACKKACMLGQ
Experiment: In vitro glucokinase activity (G6PDH-coupled NADH generation assay)
Assay type: biochemical
Parameters: unit not given here
Conditions: concentration of activator that produced a 50% increase in the activity of GK; 5 mM D-glucose, 30° C., pH 7.1, 10% DMSO
measurement label: SC 1.5:0.1

Example compounds with recorded SC 1.5:0.1:
Exercise: Which SC 1.5:0.1 reading was recorded for the compound `COc1cccc2c1CC1=C(O2)C(=O)N([C@@H](CC2CCCCC2)C(=O)Nc2ccn(C[C@@H](O)CO)n2)C1` ?
Solution: 0.507

Exercise: Which SC 1.5:0.1 reading was recorded for the compound `COC(=O)c1ccc(NC(=O)[C@H](CC2CCCCC2)N2CC3=C(Oc4cccc(OC)c4C3)C2=O)nc1` ?
Solution: 0.302

a: COc1cccc2c1CC1=C(O2)C(=O)N([C@@H](CC2CCCCC2)C(=O)Nc2ccc(Cl)cn2)C1
b: O=C(Nc1nccs1)[C@H](CC1CCCCC1)N1CC2=C(Oc3cccc(Cl)c3C2)C1=O
Exercise: Please tell me which of the two, a or b , has the higher reported SC 1.5:0.1 value. Your answer should be the label attached to the chosen record.
Solution: b

P: COc1cccc2c1CC1=C(O2)C(=O)N([C@@H](CC2CCCCC2)C(=O)Nc2nccs2)C1
Q: COC(=O)c1ccc(NC(=O)[C@H](CC(C)C)N2CC3=C(Oc4cccc(Cl)c4C3)C2=O)nc1
Exercise: Please indicate which item has the smaller measured SC 1.5:0.1: P versus Q Your answer should be the label attached to the chosen record.
Solution: P

a: COc1ccc(OC)c2c1CC1=C(O2)C(=O)N([C@@H](CC2CCCCC2)C(=O)Nc2nccs2)C1
b: O=C(Nc1nccs1)[C@H](CC1CCCCC1)N1CC2=C(Oc3c(Cl)cccc3C2)C1=O
c: COC(=O)c1ccc(NC(=O)[C@H](CC(C)C)N2CC3=C(Oc4cccc(OC)c4C3)C2=O)nc1
d: COC(=O)c1ccc(NC(=O)[C@H](CC2CCCCC2)N2CC3=C(Oc4c(OC)ccc(OC)c4C3)C2=O)nc1
Exercise: Give the ascending ranking of the items by reported SC 1.5:0.1. As an answer, provide the labels arranged in the order called for.
Solution: d, c, a, b
